B1: TPR 5TU (parent)
chain: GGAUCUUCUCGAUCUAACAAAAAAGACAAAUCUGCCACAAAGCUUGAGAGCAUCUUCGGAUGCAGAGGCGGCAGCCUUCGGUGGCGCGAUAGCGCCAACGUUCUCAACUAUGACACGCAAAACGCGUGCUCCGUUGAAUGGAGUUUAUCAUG

Variants of: B1
assay: polymerase ribozyme fitness, log enrichment relative to wild type (log ratio); higher = more active; in vitro selection for triplet polymerase activity
This sample holds only a part of the variants without activity.
# polymerase ribozyme fitness (log ratio) annotations
value-kind: polymerase ribozyme fitness (log ratio)

{"variant-descriptor": "A106U", "result-comparator": "=", "measured-number": -0.23}
{"variant-descriptor": "U45G C103A A150U", "result-comparator": "≤", "measured-number": -4.2}
{"variant-descriptor": "A20G A37G A106G A138C", "result-comparator": "=", "measured-number": -3.84}
{"variant-descriptor": "C5A C32A U56A C85U A113C", "result-comparator": "≤", "measured-number": -4.2}
{"variant-descriptor": "U45G C57A C93A G124A", "result-comparator": "=", "measured-number": -3.64}
{"variant-descriptor": "A40U U55A G59A C79U U82G G83A G128A U139G G143A", "result-comparator": "≤", "measured-number": -4.2}
{"variant-descriptor": "A26C C96A A120G G124U", "result-comparator": "=", "measured-number": -2.02}
{"variant-descriptor": "A12G C63U", "result-comparator": "=", "measured-number": -0.0387}
{"variant-descriptor": "A60G G126A", "result-comparator": "=", "measured-number": 1.03}
{"variant-descriptor": "G92C C132U", "result-comparator": "=", "measured-number": -1.6}
{"variant-descriptor": "U33G C35A A66G C93U U104G C105U U134G", "result-comparator": "≤", "measured-number": -4.2}
{"variant-descriptor": "C93U C99G", "result-comparator": "=", "measured-number": -1.97}
{"variant-descriptor": "C27U A47C G128U", "result-comparator": "≤", "measured-number": -4.2}
{"variant-descriptor": "C76U A97G G100A A142G", "result-comparator": "≤", "measured-number": -4.2}
{"variant-descriptor": "G50C U56C C87G A89C G100C A120G C125U", "result-comparator": "≤", "measured-number": -4.2}
{"variant-descriptor": "G68C C103U", "result-comparator": "≤", "measured-number": -4.2}
{"variant-descriptor": "C76G C103G U104G U135C", "result-comparator": "≤", "measured-number": -4.2}
{"variant-descriptor": "G34A C87U A89U G100A C103G A107U G124C U135G G140A G141C", "result-comparator": "≤", "measured-number": -4.2}
{"variant-descriptor": "G92C A115U", "result-comparator": "=", "measured-number": -1.86}
{"variant-descriptor": "G68U U101C", "result-comparator": "=", "measured-number": -4.07}
{"variant-descriptor": "G81A U127C", "result-comparator": "=", "measured-number": -2.04}
{"variant-descriptor": "G25C C57A C63A G92C A113C U134A", "result-comparator": "≤", "measured-number": -4.2}
